measured on: T1, Recombinant human CD4 (R&D Systems, Cat. 10327-CD) (human, UniProt P01730 26-390, limits assumed)
T1 construct: Soluble analyte in the Octet assay
assay comment: BLI Octet, mAb on anti-mouse Fc sensor, CD4 100/50/25 nM, 1:1 global fit;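 note: antibodies loaded at 10 µg/mL, an unrelated mouse-derived antibody served as internal reference control, association and dissociation phases fitted after Savitzky-Golay smoothing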
Form field: kon (one value per entry).
outcome measure: kon (M⁻¹ s⁻¹)

[[record]]
binder = "75110_01G11A (antibody, V domains shown, Tested as antibody purified from AlivaMab Mouse hybridoma supernatant (captured by anti-mouse IgG Fc)) VH: EVQLVESGGGLVQPGGSLRLSCAASGFTFSSYDMHWVRQATGKGLEWVSTIGTAGDTYYPGSVKGRFTISRENARNSLFLQMNSLRAGDTAVYYCARGGDYYYGMDVWGQGTTVTVSS VL: EIVLTQSPGTLSLFPGERATLSCRASQNTYSSYLAWYQQKPGQAPRLLIYGASNRATGIPDRFSGSGSGTDFTLTISRLEPEDFAVYYCQQHGTSPFTFGPGTKVDIK"
measured_result = 42000

[[record]]
binder = "75110_04P08A (antibody, V domains shown, Tested as antibody purified from AlivaMab Mouse hybridoma supernatant (captured by anti-mouse IgG Fc)) VH: QVQLQQWGAGLLKPSETLSLTCAVYGGSLSGYYWSWIRQSPGKGLEWIGEINQSGSTNYNPSLKSRVTISVDTSKDQFSLRLTSVTAADTAVYYCTRVLNWFDPWGRGTLVTVSS VL: DIQMTQSPSSVSASVGDRVTLTCRASQDISNWLAWYQQKPGKAPKLLIYAASSLQSGVPSRFSGSGSGTDFTLTISSLQTEDFATYYCQQANSFPYTFGQGTKLEIK"
measured_result = 140000

[[record]]
binder = "75110_01J17A (antibody, V domains shown, Tested as antibody purified from AlivaMab Mouse hybridoma supernatant (captured by anti-mouse IgG Fc)) VH: EVQLVESGGGLVQPGGSLRLSCAASGFTFSSYDMHWVRQGTGKGLEWVSTIGTADDTYYPGSVKGRFTISRENAENSLYLQMNSLRAGDTAVYYCARGGDYYYGMDVWGQGTTVTVSS VL: EIVLAQSPGTLSLSPGERATLSCRASQSVYISYLAWYQQKPGQAPRLLIYGASSRATGIPDRFSGSGSGTDFTLTITRLEPEDFAVYYCQQFGSSPFTFGPGTKVDFK"
measured_result = 43000

[[record]]
binder = "75110_02N15A (antibody, V domains shown, Tested as antibody purified from AlivaMab Mouse hybridoma supernatant (captured by anti-mouse IgG Fc)) VH: EVQLVESGGGLVQPGGSLRLSCAASGFTFSSYWMSWVRQAPGKGLEWVANINEDGNEKYYVDSVKGRFTISRDNAKNSLFLQMNSLRAEDTAVYFCAREGGQWLALDHWGQGALVTVSS VL: DIQMTQSPSSVSASVGDRVTITCRASQGISSWLAWYQQKPGKAPKFLISGASSLQSGVPSRFSGSGSGTDFTLTISSLQPEDFATYYCQQANSFPWTFGQGTKVEFK"
measured_result = 160000

[[record]]
binder = "75110_03C01A (antibody, V domains shown, Tested as antibody purified from AlivaMab Mouse hybridoma supernatant (captured by anti-mouse IgG Fc)) VH: QVQLQQWGAGLLKPSETLSLTCAVYGGSFSGYYWSWIRQSPGKGLEWIGEINQSGSTNYNPSLKSRVTISVDTSKDQFSLKLSSVTAADTAVYYCARVINWFDSWGQGSLVTVSS VL: DIQMTQSPSSVSASVGDRVTITCRASQGISSWLAWYQQKPGNAPKLLIYDASSFQSGVPSRFSGSGSGTDFTLTISSLQTEDFATYYCQQANSFPYTFGQGTKLEIK"
measured_result = 140000


src = patent US20220112288A1
